- protocol-text: modulators of CIT2-GFP expression in yeast, confirmation, S. cerevisiae, GFP fusion, cherry picks, mother/daughter gates (AID 2274)
- condition-info: S. cerevisiae CIT2-GFP strain, flow cytometry, 3 h; measured here: mother cell gate; at 10 µM; stronger effect = higher value
GFP response, % of DMSO reference
Your answer should be a number followed by the unit of measure.

Take a look at these entries with their results.
* COC(=O)c1ccc(/C=N/NC(=O)c2cccc(F)c2)cc1 | 99.1%
* Cc1ccn2c(NC3CCCCC3)c(C(C)C)nc2c1 | 101%

## Input Tell us which GFP response, % of DMSO value is on record for O=S(=O)(c1ccccc1)N1N=C(c2cccs2)CC1c1ccc(F)cc1 (stereo not drawn)
## Output 98.7%

## Input Tell us which GFP response, % of DMSO value is on record for "Cc1cc(NCCCN2CCOCC2)n2ncc(-c3ccccc3)c2n1"
## Output 93.4%

## Input Tell us which GFP response, % of DMSO value is on record for "COCCNC(=O)c1ccc(Cl)c(Cl)c1"
## Output 93.8%

## Input Tell us which GFP response, % of DMSO value is on record for "Cc1ccccc1C(=O)Nc1cccc(C#N)c1"
## Output 97.1%

## Input Tell us which GFP response, % of DMSO value is on record for "CC(C)c1nnc(NC(=O)c2nc(S(=O)(=O)Cc3ccccc3F)ncc2Cl)s1"
## Output 100%

## Input Tell us which GFP response, % of DMSO value is on record for "O=C(O)Cc1ccc2ccc3ccccc3c2c1"
## Output 104%

====

- protocol-text: modulators of CIT2-GFP expression in yeast, confirmation, S. cerevisiae, GFP fusion, cherry picks, mother/daughter gates (AID 2274)
- condition-info: S. cerevisiae CIT2-GFP strain, flow cytometry, 3 h; measured here: daughter cell gate; at 10 µM; stronger effect = higher value
observable: GFP response, % of DMSO (%)
The reply should be a number in %, with the unit left off.

Take a look at these entries with their results.
* Cn1ncc2c(O/N=C(\N)c3ccc(C(C)(C)C)cc3)ncnc21 | 114
* COC(=O)c1ccc(Cn2cc(/C=C\[N+](=O)[O-])c3ccccc32)o1 | 100

## Input Tell us which GFP response, % of DMSO value is on record for "Cc1cccc(NC(=O)/C(C#N)=C/c2ccccc2Cl)n1"
## Output 117

## Input Tell us which GFP response, % of DMSO value is on record for "O=C(O)Cc1sc(Nc2ccccc2)nc1-c1cccs1"
## Output 104

## Input Tell us which GFP response, % of DMSO value is on record for CC(C)COC(=O)NCC12C=CC(O1)C1C(=O)N(c3ccc(Cl)cc3)C(=O)C12 (stereo unspecified)
## Output 101

## Input Tell us which GFP response, % of DMSO value is on record for "O=C(OCn1ncc(Br)c(Br)c1=O)c1ccccc1Cl"
## Output 104

====

- protocol-text: AGP1-GFP expression modulators, hit retest, confirmation, cell-based, flow cytometry, S. cerevisiae, cherry picks (AID 2273);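 note: median GFP channel fluorescence over the whole cell population gate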
- condition-info: S. cerevisiae AGP1-GFP strain, 3 h, at 10 µM
GFP response, % of DMSO reference
The reply should be a number in %, with the unit left off.

- COc1ccc(CC(=O)NCc2ccccn2)cc1OC: 100
- CS(=O)(=O)Nc1ccc(C2=NN(S(C)(=O)=O)C(c3ccccc3)C2)cc1 (stereo unspecified): 115
- COc1ccc(Sc2ncnc3onc(C)c23)cc1: 99.1
- CC(=O)Nc1c(-c2ccc(F)cc2)nc2ccccn12: 106
- Cc1ccc(-c2ccc(CCC(=O)O)o2)cc1: 94.8

## Input Tell us which GFP response, % of DMSO value is on record for "COc1cccc2c1Oc1ncccc1N(C(=O)CCC(=O)NCc1ccccc1Cl)C2"
## Output 99.6

## Input Tell us which GFP response, % of DMSO value is on record for "Cc1ccc(S(=O)(=O)/N=C(\Sc2ccccc2)c2ccccc2)cc1"
## Output 97.3

## Input Tell us which GFP response, % of DMSO value is on record for "CNC(=O)/C(C#N)=C/c1c(N(Cc2ccccc2)Cc2ccccc2)nc2ccccn2c1=O"
## Output 104

## Input Tell us which GFP response, % of DMSO value is on record for "O=C(N/N=C/c1c(Cl)cccc1Cl)c1cccc(F)c1"
## Output 97.5

## Input Tell us which GFP response, % of DMSO value is on record for CCCc1[nH]nc2c1C(c1ccccc1OCC)C(C#N)=C(N)O2 (stereo unspecified)
## Output 102

## Input Tell us which GFP response, % of DMSO value is on record for "O=C(Nc1nc(-c2ccccc2)cs1)c1cccnc1"
## Output 91

====

GFP response relative to DMSO reference
- protocol-text: LAP4-GFP expression modulators in yeast, confirmation, cell-based, cherry picks, flow cytometry, mother/daughter gates (AID 2271);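 note: ratio of sample to DMSO plate mean so 100% equals DMSO level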
- condition-info: S. cerevisiae LAP4-GFP strain, 3 h, measured here: daughter cell gate response, at 10 µM, stronger effect = higher value, 100 means same as DMSO control
The reply should be a number in %, with the unit left off.

• O=C(O)c1ccc2ccc3ccccc3c2c1 = 97.5

## Input Tell us which GFP response relative to DMSO value is on record for "O=C(Nc1nc(-c2ccccc2)cs1)c1cccc([N+](=O)[O-])c1"
## Output 95.9

## Input Tell us which GFP response relative to DMSO value is on record for "O=C(NC(=S)NNC(=O)c1cnccn1)c1ccc(F)cc1"
## Output 234

## Input Tell us which GFP response relative to DMSO value is on record for "COc1ccc(N/N=C(\C#N)C(N)=O)cc1"
## Output 136

## Input Tell us which GFP response relative to DMSO value is on record for "CCOC(=O)c1ccc(NC(=O)CCc2nc(-c3ccccc3)no2)cc1"
## Output 107

## Input Tell us which GFP response relative to DMSO value is on record for "COC(=O)c1ccc(Cn2cc(/C=C\[N+](=O)[O-])c3ccccc32)o1"
## Output 115

## Input Tell us which GFP response relative to DMSO value is on record for "C=CCn1cc(/C=C/c2cc[n+](C)cc2)c2ccccc21"
## Output 107

## Input Tell us which GFP response relative to DMSO value is on record for "COc1ccc(-c2nc(N)n(C(C)=O)n2)cc1"
## Output 97.2

## Input Tell us which GFP response relative to DMSO value is on record for "Cc1ccc(-c2nc3ccccn3c2NC(=O)c2ccco2)cc1"
## Output 97.5

## Input Tell us which GFP response relative to DMSO value is on record for CCOC(=O)C1C(=O)C=C(c2ccc(C)cc2)CC1c1ccco1 (centres undefined)
## Output 103

## Input Tell us which GFP response relative to DMSO value is on record for CCCc1[nH]nc2c1C(c1ccc(O)c(OC)c1)C(C#N)=C(N)O2 (centres undefined)
## Output 94.1

## Input Tell us which GFP response relative to DMSO value is on record for CC(=O)Oc1ccc(N2C(=O)C3C4C=CC(CO)(O4)C3C2=O)cc1 (centres undefined)
## Output 120

## Input Tell us which GFP response relative to DMSO value is on record for "COc1ccc(CN2CCSc3sccc3C2=O)cc1"
## Output 109

## Input Tell us which GFP response relative to DMSO value is on record for "O=C1c2cccc3c([N+](=O)[O-])ccc(c23)C(=O)N1CCc1ccccn1"
## Output 157

## Input Tell us which GFP response relative to DMSO value is on record for "COc1cc(NC(=O)C(C)C)ccc1NC(=O)c1cc2ccccc2o1"
## Output 92.5

====

- protocol-text: LAP4-GFP expression modulators in yeast, confirmation, cell-based, cherry picks, flow cytometry, mother/daughter gates (AID 2271);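 note: ratio of sample to DMSO plate mean so 100% equals DMSO level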
- condition-info: S. cerevisiae LAP4-GFP strain, 3 h, at 10 µM, stronger effect = higher value, 100 means same as DMSO control
GFP response relative to DMSO reference
The reply should be a number in %, with the unit left off.

Take a look at these entries with their results.
- COc1ccccc1NC(=O)Cn1nnc(-c2ccccc2NC(=O)c2ccco2)n1: 85.4
- Oc1c(Br)cc(Br)cc1C=Nc1ccc2[nH]ncc2c1: 185
- CC(OC(=O)c1cccs1)C(=O)Nc1nc(-c2ccccc2)cs1 (stereo unspecified): 94.2
- O=C(Nc1cc(Sc2ccccn2)cc([N+](=O)[O-])c1)c1cccc(F)c1: 101
- O=C(O)CSC1CC(=O)N(c2ccc(Cl)c(Cl)c2)C1=O (stereo unspecified): 108

## Input Tell us which GFP response relative to DMSO value is on record for "c1ccc(Cn2ncc3ccccc32)cc1"
## Output 94.2

## Input Tell us which GFP response relative to DMSO value is on record for "COc1ccc(CC(=O)Oc2ccccc2C)cc1"
## Output 100

## Input Tell us which GFP response relative to DMSO value is on record for "COCCN(CCOC)S(=O)(=O)c1ccc(C(=O)Nc2nnc(C3CC3)o2)cc1"
## Output 93.8

## Input Tell us which GFP response relative to DMSO value is on record for "CCCc1ccc(C(=O)N2CCN(c3ccccc3OCC)CC2)cc1"
## Output 95.3

## Input Tell us which GFP response relative to DMSO value is on record for "CN1CCSc2ccc(C(=O)Nc3cccc(F)c3)cc21"
## Output 120

## Input Tell us which GFP response relative to DMSO value is on record for "CCCN(CCC)S(=O)(=O)c1ccc(C(=O)Nc2nnc(-c3cc(OC)cc(OC)c3)o2)cc1"
## Output 91.5
